I'd be grateful if you could share measured MIC for these entries.
System: E. coli BL21
experiment.description: MIC against Gram-negative bacteria: E. coli BL21
Type: cell-based
reported.conditions: E. coli BL21; 10 h cultivation at 37° C.
One number for each entry, in µg/mL.

Sample answers from the record:
substance	experimental.target	observed.value
PRT1006 (PLSSCQKAALSQGIDVSSLCHNGGLCVDSGPSYFCHCPPGFQGSLCQ; listed as Homo sapiens)	E. coli BL21	50
PRT919 (NIDDCPGNNCKNGGACVDGVNTYNCRCPPEWTGQYCT; listed as Homo sapiens)	E. coli BL21	12.5
PRT1022 (DIDECSEQPSVCGSHTICNNHPGTFRCECVEGYQFSDEGTCV; listed as Homo sapiens)	E. coli BL21	50
PRT997 (EVDECLSDPCPVGASCLDLPGAFFCLCPSGFTGQLCE; listed as Homo sapiens)	E. coli BL21	12.5
PRT896 (EVNECNSNPCVHGACRDSLNGYKCDCDPGWSGTNCD; listed as Homo sapiens)	E. coli BL21	50

I would be grateful if you could provide MIC for each of the following entries.
1. PRT948 (DINECLSNPCSSEGSLDCIQLTNDYLCVCRSAFTGRHCE; listed as Homo sapiens)
2. PRT1035 (HRAKCAPSYLFSCFNGGECVHPAFCDCRRFNATGPRCQ; listed as Homo sapiens)
3. PRT1041 (VPLCAQECVHGRCVAPNQCQCVPGWRGDDCS; listed as Homo sapiens)
4. PRT961 (DVDECASTPCRNGAKCVDQPDGYECRCAEGFEGTLCD; listed as Homo sapiens)
5. PRT943 (PNVSCDIAASRRGVLVEHLCQHSGVCINAGNTHYCQCPLGYTGSYCE; listed as Homo sapiens)

Data returned:
[12.5, 50, 25, 25, 12.5]

I would be grateful if you could provide MIC for each of the following entries.
1. PRT944 (TSHPCFVSRPCLNGGTCHMLSRDTYECTCQVGFTGKECQ; listed as Homo sapiens)
2. PRT1020 (SRQTCANNRHQCSVHAECRDYATGFCCSCVAGYTGNGRQCV; listed as Homo sapiens)

Data returned:
[25, 12.5]

I would be grateful if you could provide MIC for each of the following entries.
1. PRT1017 (NPDNCVSHQCQNGGTCQDGLDTYTCLCPETWTGWDCS; listed as Homo sapiens)
2. PRT1037 (DCSRPCPPGRQKSPRDPCQCVCHGSAVTTQDCC; listed as Homo sapiens)
3. PRT977 (EVDPCLAQPCQHGGTCRGYMGGYMCECLPGYNGDNCE; listed as Homo sapiens)
4. PRT950 (CESGCASSPCQHGGSCHPQRQPPYYSCQCAPPFSGSRCE; listed as Homo sapiens)

Data returned:
[12.5, 50, 50, 12.5]
